- system.under.test: UniProt P06401
- Sequence (P06401 whole entry): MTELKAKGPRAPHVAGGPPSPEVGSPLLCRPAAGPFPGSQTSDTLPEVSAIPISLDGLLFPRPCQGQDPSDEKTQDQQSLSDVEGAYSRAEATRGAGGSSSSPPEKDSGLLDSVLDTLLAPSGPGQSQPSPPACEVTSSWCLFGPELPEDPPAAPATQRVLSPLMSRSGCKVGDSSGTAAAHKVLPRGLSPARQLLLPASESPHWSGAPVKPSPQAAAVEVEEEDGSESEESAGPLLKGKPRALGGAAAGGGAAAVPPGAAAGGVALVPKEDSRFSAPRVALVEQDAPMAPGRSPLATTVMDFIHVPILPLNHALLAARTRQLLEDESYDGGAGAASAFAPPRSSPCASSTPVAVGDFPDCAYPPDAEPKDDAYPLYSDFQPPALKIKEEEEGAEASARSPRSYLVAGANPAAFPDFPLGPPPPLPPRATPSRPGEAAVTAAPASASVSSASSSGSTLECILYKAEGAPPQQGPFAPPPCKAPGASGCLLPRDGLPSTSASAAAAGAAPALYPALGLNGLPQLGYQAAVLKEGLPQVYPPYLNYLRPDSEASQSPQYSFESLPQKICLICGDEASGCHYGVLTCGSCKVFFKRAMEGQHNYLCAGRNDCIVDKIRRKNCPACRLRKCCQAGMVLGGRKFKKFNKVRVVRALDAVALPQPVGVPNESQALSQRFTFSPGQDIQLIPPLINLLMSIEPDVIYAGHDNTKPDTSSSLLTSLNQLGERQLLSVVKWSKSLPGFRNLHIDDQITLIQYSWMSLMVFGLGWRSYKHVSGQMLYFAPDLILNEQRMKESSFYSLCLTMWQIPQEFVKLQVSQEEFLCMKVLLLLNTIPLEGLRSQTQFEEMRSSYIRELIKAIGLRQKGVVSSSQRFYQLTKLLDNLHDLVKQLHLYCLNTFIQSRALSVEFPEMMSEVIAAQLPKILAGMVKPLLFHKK
- method.notes: Displacement of TAMRA labeled mifepristone at human progesterone receptor in insect cell
IC50 by entry:

Here's what some known entries look like.
| molecule | IC50 |
| --- | --- |
| COc1ccc(F)cc1C(C)(C)CC(O)(Cc1ccccc1C)C(F)(F)F (stereo not given) | > 1130 nM |
| COc1ccc(F)cc1C(C)(C)CC(O)(Cc1ccc(C)c2ccccc12)C(F)(F)F (stereo not given) | 1200 nM |
| COc1ccc(F)cc1C(C)(C)CC(O)(Cc1ccccc1Br)C(F)(F)F (stereo not given) | > 512 nM |
| COc1ccc(F)cc1C(C)(C)CC(O)(Cc1ccc(Cl)cc1)C(F)(F)F (stereo not given) | > 2000 nM |

Read the next record carefully.
State the recorded IC50 for this entry: COc1ccc(F)cc1C(C)(C)CC(O)(Cc1ccc2ccccc2c1)C(F)(F)F (stereo not given)
> 2000 nM

Taken from ChEMBL document CHEMBL1149697.
